molecular target: DNA polymerase beta (Homo sapiens)
pIC50: −log10 of the molar value.
metric: pIC50

Tested on DNA polymerase beta (Homo sapiens), the item "CN(C)S(=O)(=O)N(C)[C@@H]1CCCn2c1nc(C(=O)NCc1ccc(F)cc1)c(O)c2=O" showed pIC50 equal to < 3.70

====

assay: Cmax in rat at 10 mg/kg, po; assay type: ADME, organism-based; set-up: dose 10 mg/kg, route oral; settings: in vivo
metric: Cmax (nM)
Enter your answer as a number in nM; do not include the unit.

Per the record, "CN(C)C(=O)C(=O)N(C)[C@H]1CCCn2c1nc(C(=O)NCc1ccc(F)cc1)c(O)c2=O" has Cmax of 2500
